# test: Plasma pharmacokinetics of irinotecan and its metabolites
# studyConditions: human, iv, 100 mg/m2
measurementType: Tmax (h)
# value in h; strip the unit string

Please give measured Tmax of the following entry: "CCc1c2c(nc3ccc(OC(=O)N4CCC(N5CCCCC5)CC4)cc13)-c1cc3c(c(=O)n1C2)COC(=O)[C@]3(O)CC"
1.4

---

# test: clinical
# studyConditions: human, in vivo, 400 mg, Cmax
measurementType: Cmax (ng/mL)
Write the value in ng/mL as a bare number.

Please report the measured Cmax for CNC(=O)c1cc(Oc2ccc(NC(=O)Nc3ccc(Cl)c(C(F)(F)F)c3)cc2)ccn1 [Sorafenib, reference compound]
4710
